The origin of these recorded values is PubChem BioAssay AID1963982.

Test system: 313798-341-R-J2-PDC spheroids, viability;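 further: spheroids exposed to compounds for seven days; 100% = DMSO vehicle control viability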
protocol_summary: Anticancer human tumor 313798-341-R-J2-PDC patient-derived cervical squamous cell carcinoma cell line growth inhibition [PI3K]
experimental_setup: second compound 10 µM; first compound 0.316 µM; hits give low values; spheroids with HUVEC and MSC
As shown below, each of these molecules has a reported viability, T/C value.
recorded_metric: viability, T/C

# molecule, reported_value
records = [
    ("CCCS(=O)(=O)Nc1ccc(F)c(C(=O)c2c[nH]c3ncc(-c4ccc(Cl)cc4)cc23)c1F + Cc1nc(NC(=O)N2CCCC2C(N)=O)sc1-c1ccnc(C(C)(C)C(F)(F)F)c1", "38.7%"),
    ("CC1(C)CCC(Nc2ncc(C(F)(F)F)c(-c3c[nH]c4c(P(C)(C)=O)c(C#N)ccc34)n2)CN1 (stereo not given) + Cc1nc(NC(=O)N2CCCC2C(N)=O)sc1-c1ccnc(C(C)(C)C(F)(F)F)c1", "16.6%"),
    ("C[C@@H](NC(=O)c1ncnc(N)c1Cl)c1ncc(C(=O)Nc2cc(C(F)(F)F)c(Cl)cn2)s1 + Cc1nc(NC(=O)N2CCCC2C(N)=O)sc1-c1ccnc(C(C)(C)C(F)(F)F)c1", "38.2%"),
    ("CCCS(=O)(=O)Nc1ccc(F)c(C(=O)c2c[nH]c3ncc(-c4ccc(Cl)cc4)cc23)c1F + CC(Nc1ncnc2nc[nH]c12)c1cc2cccc(Cl)c2c(=O)n1-c1ccccc1", "91.2%"),
    ("C=CC(=O)N1CCN(c2nc(=O)n(-c3c(C)ccnc3C(C)C)c3nc(-c4c(O)cccc4F)c(F)cc23)C(C)C1 (stereo not given) + Cc1nc(NC(=O)N2CCCC2C(N)=O)sc1-c1ccnc(C(C)(C)C(F)(F)F)c1", "35.7%"),
    ("C#Cc1c(F)ccc2cc(O)cc(-c3ncc4c(N5CC6CCC(C5)N6)nc(OCC56CCCN5CC(F)C6)nc4c3F)c12 (stereo not given) + Cc1nc(NC(=O)N2CCCC2C(N)=O)sc1-c1ccnc(C(C)(C)C(F)(F)F)c1", "33.2%"),
    ("CC1(C)CCC(Nc2ncc(C(F)(F)F)c(-c3c[nH]c4c(P(C)(C)=O)c(C#N)ccc34)n2)CN1 (stereo not given) + CC(Nc1ncnc2nc[nH]c12)c1cc2cccc(Cl)c2c(=O)n1-c1ccccc1", "35%"),
    ("CC1(C)CCC(CN2CCN(c3ccc(C(=O)NS(=O)(=O)c4ccc(NCC5CCOCC5)c([N+](=O)[O-])c4)c(Oc4cnc5[nH]ccc5c4)c3)CC2)=C(c2ccc(Cl)cc2)C1 + CC(Nc1ncnc2nc[nH]c12)c1cc2cccc(Cl)c2c(=O)n1-c1ccccc1", "87%"),
    ("C=CC(=O)N1CCN(c2nc(=O)n(-c3c(C)ccnc3C(C)C)c3nc(-c4c(O)cccc4F)c(F)cc23)C(C)C1 (stereo not given) + CC(Nc1ncnc2nc[nH]c12)c1cc2cccc(Cl)c2c(=O)n1-c1ccccc1", "98.2%"),
    ("CCN1CCN(Cc2ccc(Nc3ncc(F)c(-c4cc(F)c5nc(C)n(C(C)C)c5c4)n3)nc2)CC1 + CC(Nc1ncnc2nc[nH]c12)c1cc2cccc(Cl)c2c(=O)n1-c1ccccc1", "82.4%"),
]
